Assay: Tmax in Sprague-Dawley rat at 3 mg/kg, iv measured upto 24 hrs by LC-MS/MS analysis
Assay type: ADME, organism-based
Conditions: in vivo
assayMetric: Tmax (min)
Reply numerically in min, unit not repeated.

Inquiry: Quick one: Tmax of COc1nc(-c2cccc(-c3ccccc3)c2C)ccc1CNCCO ?
Reply text: 1.8

----------
Experiment: Clearance in Sprague-Dawley rat at 25 mg/kg, po measured upto 24 hrs by LC-MS/MS analysis
Assay type: ADME, organism-based
Conditions: in vivo
assayMetric: CL/F (mL/min/kg)
# unit: mL/min/kg | format: bare number

Inquiry: Fill blank: measured CL/F of the compound COc1nc(-c2cccc(-c3ccccc3)c2C)ccc1CNCCO is ____.
Reply text: 480

----------
Biological target: Programmed cell death protein 1/Programmed cell death 1 ligand 1 (Homo sapiens, UniProt Q9NZQ7)
Sequence (Q15116 whole entry): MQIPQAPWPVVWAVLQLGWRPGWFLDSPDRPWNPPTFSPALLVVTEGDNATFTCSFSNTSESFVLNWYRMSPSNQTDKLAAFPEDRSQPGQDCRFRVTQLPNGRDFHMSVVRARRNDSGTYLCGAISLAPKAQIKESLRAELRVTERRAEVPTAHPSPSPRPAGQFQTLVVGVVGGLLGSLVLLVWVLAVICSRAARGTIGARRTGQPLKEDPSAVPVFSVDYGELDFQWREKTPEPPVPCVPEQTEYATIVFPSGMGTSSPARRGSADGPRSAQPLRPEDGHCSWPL
Sequence (Q9NZQ7 whole entry): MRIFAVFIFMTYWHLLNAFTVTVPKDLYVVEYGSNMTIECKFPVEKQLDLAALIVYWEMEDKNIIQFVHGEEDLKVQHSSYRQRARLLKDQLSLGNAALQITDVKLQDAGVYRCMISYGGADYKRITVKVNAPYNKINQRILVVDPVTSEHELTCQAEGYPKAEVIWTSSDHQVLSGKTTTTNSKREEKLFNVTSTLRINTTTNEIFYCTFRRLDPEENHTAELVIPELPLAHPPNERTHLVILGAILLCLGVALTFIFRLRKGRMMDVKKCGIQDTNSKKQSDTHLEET
Experiment: Inhibition of PD-1/PD-L1 interaction (unknown origin) preincubated with PD-L1 for 15 mins followed by PD-1 addition measured after 90 mins by TR-FRET assay
Measured IC50, listed per entry.
Lab book: enter the figure in µM, no units written.

> print(dat)
                            structurestring  uom  assayvalue
1  COc1nc(-c2cccc(-c3ccccc3)c2C)ccc1CNCCNC(C)=O   µM      0.0144

Inquiry: Report IC50 for COc1nc(-c2cccc(-c3ccc4c(c3)OCCO4)c2C)ccc1CNCCNC(C)=O please.
Reply text: 0.0141

Inquiry: Query COc1nc(-c2cccc(-c3ccc4c(c3)OCCO4)c2C)ccc1CNCCN next
Reply text: 0.0167

Inquiry: Now consider Cc1c(-c2ccccc2)cccc1-c1cc(CNCCO)ccn1 .
Reply text: 0.131

Inquiry: Try this compound next: COc1nc(-c2cccc(-c3ccccc3)c2C)ccc1CN[C@@H](CO)C(=O)O
Reply text: 0.017

Inquiry: Also check COC(=O)c1ccc(-c2cccc(-c3ccccc3)c2C)nc1OC
Reply text: 0.326

Inquiry: Can you handle COc1nc(-c2cccc(-c3ccccc3)c2C)ccc1CN1CC[C@@H](O)C1 next?
Reply text: 0.0085

----------
Experiment: AUC (0 to t) in Sprague-Dawley rat at 3 mg/kg, iv measured upto 24 hrs by LC-MS/MS analysis
Assay type: ADME, organism-based
Parameters: route intravenous, dose 3 mg/kg, time <=24
Conditions: in vivo
assayMetric: AUC(0-t) at 24 h
Answer with the figure and its unit, nothing else.

Inquiry: So what's the measured AUC(0-t) at 24 h for this one? COc1nc(-c2cccc(-c3ccccc3)c2C)ccc1CNCCO
Reply text: 430 ng·h/mL

----------
Test: Half life in Sprague-Dawley rat at 25 mg/kg, po measured upto 24 hrs by LC-MS/MS analysis
Type: ADME, organism-based
Conditions: in vivo
assayMetric: half-life (min)
Report the figure in min without appending any unit label.

Inquiry: Fill in the blank: the reported half-life of COc1nc(-c2cccc(-c3ccccc3)c2C)ccc1CNCCO is ____.
Reply text: 384

----------
Test: Apparent volume of distribution in Sprague-Dawley rat at 3 mg/kg, iv measured upto 24 hrs by LC-MS/MS analysis
Type: ADME, organism-based
Conditions: in vivo, read-out: Vz
assayMetric: Vd (L/kg)
Dear colleague, please return just the value in L/kg, with no unit written.

Inquiry: What value of measured Vd is listed for COc1nc(-c2cccc(-c3ccccc3)c2C)ccc1CNCCO ?
Reply text: 78.6
